meta.source: paper PMC11106739

# System: ATCC 25922
# Assay type: cell-based, Enterococcus faecalis
# Measurement Context: ATCC 25922, 20 h
# Experimental: All minimum inhibitory concentrations (MICs) were determined according to the Clinical and Standards Laboratory Institute (CLSI) guidelines. In brief, agar plates were inoculated from glycerol stocks and incubated overnight at 35 °C. Peptide DMSO stocks were dispensed into 96-well round-bottom plates using a TECAN D300e dispenser. […] Images of all plates were recorded, and MIC was assessed visually.
Where a SMILES comes first, the peptide text is derived from it. [ ]: non-standard residue; d: D form. The star is where a group is joined. d(aIle) = CC[C@H](C)[C@@H](N)C(=O)O; dDab = NCC[C@@H](N)C(=O)O; Octanoyl = CCCCCCCC(=O)*; Dab = NCC[C@H](N)C(=O)O
Property Measured: MIC (µg/mL)

Compound	Property Measured	Unit Spec	Test Value
CCCCCCCC(=O)N[C@@H](C(=O)N[C@H](CCN)C(=O)NCC(=O)N[C@H](CO)C(=O)N[C@H](Cc1c[nH]c2ccccc12)C(=O)N[C@@H](CO)C(=O)N[C@@H](CCN)C(=O)N[C@H](CCN)C(=O)N[C@@H](Cc1ccccc1)C(=O)N[C@@H](CCC(=O)O)C(=O)N[C@H](C(=O)N[C@@H](C(=O)N[C@@H](C)C(=O)O)[C@@H](C)CC)C(C)C)C(C)C [Oct-TriA1] (Octanoyl-[dV][dDab]G[dS][dW]S[Dab][dDab]FEV[d(aIle)]A-OH)	MIC	µg/mL	32
CCCCCCCC(=O)N[C@H](Cc1ccccc1)C(=O)N[C@H](CCN)C(=O)N[C@@H](C(=O)N[C@H](CO)C(=O)N[C@H](Cc1c[nH]c2ccccc12)C(=O)N[C@@H](CO)C(=O)N[C@@H](CO)C(=O)N[C@H](CCN)C(=O)N[C@@H](Cc1c[nH]c2ccccc12)C(=O)N[C@@H](CO)C(=O)N[C@H](C(=O)N[C@@H](C(=O)N[C@@H](CCN)C(=O)O)[C@@H](C)CC)C(C)C)[C@H](C)CC [Oct-TriD] (Octanoyl-[dF][dDab][dI][dS][dW]SS[dDab]WSV[d(aIle)][Dab]-OH)	MIC	µg/mL	8
